Measured values drawn from patent US12691070B2 for this set.

Consider the following molecules; for each one, report its PDI.
# test.name: LNP size and polydispersity index (PDI) by dynamic light scattering
# Type: physicochemical
# condition: LNP with cirRNA (SEQ ID NO: 1)
Numbers only.

Worked cases, PDI given:
| molecule | assay.result |
| --- | --- |
| CCCCCCCCCCC(CCCCCCCC)COC(=O)CCCCCN(CCCCCC(=O)OCC(CCCCCCCC)CCCCCCCCCC)CCCOC(=O)NCCN1CCCC1 (centres unmarked) | 0.1084 |
| CCCCCCCCC(CCCCCCCC)OC(=O)CCCCCCCN(CCCCCCCCOC(=O)C(CCCCCC)CCCCCCCC)CCOC(=O)NCCN(C)C (centres unmarked) | 0.05 |
| CCCCCCCCC(CCCCCCCC)OC(=O)CCCCCCCN(CCCCCCCCOC(=O)C(CCCCCC)CCCCCCCC)CCCOC(=O)NCCN1CCCCCC1 (centres unmarked) | 0.1505 |
| CCCCCCCC/C=C\CCCCCCCCN(CCCCCCCCOC(=O)C(CCCCCC)CCCCCCCC)CCOC(=O)NCc1ncc[nH]1 (centres unmarked) | 0.1853 |

Required: PDI, one value per molecule below.
1. CCCCC/C=C\C/C=C\CCCCCCCCN(CCCCCCCC(=O)OC(CCCCCCCC)CCCCCCCC)CCCOC(=O)NCCCN(CC)CC
2. CCCCCCCCCCCOC(=O)CCCCCN(CCCCCC(=O)OCCCCCCCCCCC)CCOC(=O)NCCN1CCCCC1
3. CCCCCCCC/C=C\CCCCCCCCN(CCCCCCCCOC(=O)C(CCCCCC)CCCCCCCC)CCOC(=O)NCCN1CCCC1 (centres unmarked)

Response:
0.3463
0.05565
0.3124

----------
# Tested on: MCP-I
# test.name: MCP-I cytokine elevation in serum
# Format: in vivo
# condition: cirRNA (SEQ ID NO: 1) LNPs, mice, 24 hours
I'd appreciate it if you marked entries class 1 when MCP-I in Sera 24 hours After 0.5 MPK Injection is lower than 400 pg/mL and class 0 when it is not.

| compound | class.label |
| --- | --- |
| CCCCCCCCCC(=O)OCCCCCCCN(CCCCCCCCOC(=O)C(CCCCCC)CCCCCCCC)CCOC(=O)NCCN(C)C (stereo not shown) | class 1 |
| CCCCC/C=C\C/C=C\CCCCCCCCN(CCCCCCCC(=O)OC(CCCCCCCC)CCCCCCCC)CCOC(=O)NCCCN(CC)CC | class 1 |
| CCCCCCCCCCC(CCCCCCCC)COC(=O)CCCCCN(CCCCCC(=O)OCC(CCCCCCCC)CCCCCCCCCC)CCCOC(=O)NCCN1CCCC1 (stereo not shown) | class 0 |
| CCCCCCCCC(CCCCCCCC)OC(=O)CCCCCCCN(CCCCCCCCOC(=O)C(CCCCCC)CCCCCCCC)CCOC(=O)NCCN(C)C (stereo not shown) | class 0 |
| CCCCC/C=C\C/C=C\CCCCCCCCN(CCCCCCCC(=O)OC(CCCCCCCC)CCCCCCCC)CCCOC(=O)NCCN(C)C | class 0 |

API: the following record is the query input.
Query: Dear colleague, could you confirm whether MCP-I in Sera 24 hours After 0.5 MPK Injection of `CCCCC/C=C\C/C=C\CCCCCCCCN(CCCCCC(=O)OCCCCCCCCCCC)CCOC(=O)NCc1ncc[nH]1` falls below 400 pg/mL? Thanks.
Response: class 1

----------
# System: MCP-I
# test.name: MCP-I cytokine elevation in serum
# Type: in vivo
# condition: cirRNA (SEQ ID NO: 1) LNPs, mice, 24 hours
I'd appreciate it if you marked entries rule met when MCP-I in Sera 24 hours After 0.5 MPK Injection is lower than 1000 pg/mL and rule not met when it is not.

| molecule | target.of.assay | class.label |
| --- | --- | --- |
| CCCCCCCCC(CCCCCCCC)OC(=O)CCCCCCCN(CCCCCCCCOC(=O)C(CCCCCC)CCCCCCCC)CCCOC(=O)NCCN1CCCCCC1 (stereo not shown) [Lipid 354] | MCP-I | rule not met |
| CCCCC/C=C\C/C=C\CCCCCCCCN(CCCCCCCC(=O)OC(CCCCCCCC)CCCCCCCC)CCOC(=O)NCCN1CCCC1 [Lipid 128] | MCP-I | rule met |
| CCCCCCCCC(CCCCCC)C(=O)OCCCCCCCCN(CCCCCCCCCCC(=O)OCCCCCC)CCOC(=O)NCCN(C)C (stereo not shown) [Lipid 43] | MCP-I | rule met |
| CCCCC/C=C\C/C=C\CCCCCCCCN(CCCCCCCC(=O)OC(CCCCCCCC)CCCCCCCC)CCOC(=O)NCCN1CCCCC1 [Lipid 127] | MCP-I | rule met |
| CCCCCCCCC(CCCCCC)C(=O)OCCCCCCCCN(CCCCCCCCOC(=O)C(CCCCCC)CCCCCCCC)CCOC(=O)NCCN(C)C (stereo not shown) [Lipid 6] | MCP-I | rule not met |

Query: Dear colleague, could you confirm whether MCP-I in Sera 24 hours After 0.5 MPK Injection of CCCCCCCCC(CCCCCC)C(=O)OCCCCCCCCN(CCCCCCCCOC(=O)C(CCCCCC)CCCCCCCC)CCCOC(=O)NCCN(C)C (stereo not shown) [Lipid 374] falls below 1000 pg/mL? Thanks.
Response: rule not met

Query: Dear colleague, could you confirm whether MCP-I in Sera 24 hours After 0.5 MPK Injection of CCCCCCCCC(CCCCCC)C(=O)OCCCCCCCCN(CCCCCCCCOC(=O)C(CCCCCC)CCCCCCCC)CCCOC(=O)NCCN1CCCCCC1 (stereo not shown) [Lipid 383] falls below 1000 pg/mL? Thanks.
Response: rule not met

Query: Dear colleague, could you confirm whether MCP-I in Sera 24 hours After 0.5 MPK Injection of CCCCCCCCCCC(CCCCCCCC)COC(=O)CCCCCN(CCCCCC(=O)OCC(CCCCCCCC)CCCCCCCCCC)CCOC(=O)NCCN1CCCC1 (stereo not shown) [Lipid 168] falls below 1000 pg/mL? Thanks.
Response: rule met

Query: Dear colleague, could you confirm whether MCP-I in Sera 24 hours After 0.5 MPK Injection of CCCCCCCCCCCOC(=O)CCCCCN(CCCCCCCC(=O)OC(CCCCCCCC)CCCCCCCC)CCOC(=O)NCCN1CCCCC1 [Lipid 165] falls below 1000 pg/mL? Thanks.
Response: rule met

Query: Dear colleague, could you confirm whether MCP-I in Sera 24 hours After 0.5 MPK Injection of CCCCCCCCC(CCCCCCCC)OC(=O)CCCCCCCN(CCCCCCCCOC(=O)C(CCCCCC)CCCCCCCC)CCCOC(=O)NCCN1CCCCC1 (stereo not shown) [Lipid 351] falls below 1000 pg/mL? Thanks.
Response: rule not met

----------
# test.name: RNA encapsulation efficacy by Quant-IT Ribogreen kit
# Type: physicochemical
# condition: LNP with mRNA (SEQ ID NO: 2)
Binary call on Encapsulation Efficiency: satisfied from 90% upward, not satisfied beneath that.

Answered examples (5):
| compound | class.label |
| --- | --- |
| CCCCCCCCC(CCCCCC)C(=O)OCCCCCCCCN(CCCCCCCCOC(=O)C(CCCCCC)CCCCCCCC)CCCOC(=O)NCCN(C)C (centres unmarked) | not satisfied |
| CCCCC/C=C\C/C=C\CCCCCCCCN(CCCCCCCC(=O)OC(CCCCCCCC)CCCCCCCC)CCCOC(=O)NCCN(C)C | satisfied |
| CCCCC/C=C\CCOC(=O)CCCCCN(CCCCCC(=O)OCC(CCCCCCCC)CCCCCCCCCC)CCOC(=O)NCCN1CCCCC1 (centres unmarked) | not satisfied |
| CCCCC/C=C\C/C=C\CCCCCCCCN(CCCCCCCC(=O)OC(CCCCCCCC)CCCCCCCC)CCOC(=O)NCCN1CCCCC1 | not satisfied |
| CCCCC/C=C\C/C=C\CCCCCCCCN(CCCCCCCC/C=C\C/C=C\CCCCC)CCOC(=O)CCCN(C)C [Lipid A, reference compound] | not satisfied |

API: the following record is the query input.
Query: Does the reported Encapsulation Efficiency for CCCCCCCCC(CCCCCCCC)OC(=O)CCCCCCCN(CCCCCCCCOC(=O)C(CCCCCC)CCCCCCCC)CCCOC(=O)NCCN(C)C (centres unmarked) fall at or above the 90% mark?
Response: satisfied

----------
# test.name: RNA encapsulation efficacy by Quant-IT Ribogreen kit
# Format: physicochemical
# condition: LNP with cirRNA (SEQ ID NO: 1)
I'd appreciate it if you marked entries met when Encapsulation Efficiency % is lower than 90% and not met when it is not.

Answered examples (3):
| compound | class.label |
| --- | --- |
| CCCCC/C=C\C/C=C\CCCCCCCCN(CCCCCCCC(=O)OC(CCCCCCCC)CCCCCCCC)CCCOC(=O)NCCCN(C)C | not met |
| CCCCCCCCCCC(CCCCCCCC)COC(=O)CCCCCN(CCCCCC(=O)OCC(CCCCCCCC)CCCCCCCCCC)CCOC(=O)NCCCN(C)C (stereo not shown) | met |
| CCCCC/C=C\C/C=C\CCCCCCCCN(CCCCCCCC(=O)OC(CCCCCCCC)CCCCCCCC)CCCOC(=O)NCCN(C)C | not met |

Query: Dear colleague, could you confirm whether Encapsulation Efficiency % of `CCCCCCCCCC(=O)OCCCCCCCCN(CCCCCCCCOC(=O)CCCCCCCCC)CCOC(=O)NCc1ncc[nH]1` falls below 90%? Thanks.
Response: met
